- test.summary: Metabolic stability in human hepatic microsome
- Type: in vitro ADME
- test.conditions: microsomes, pH 7.4; human hepatic microsome, NADPH(+); read-out: CL NADPH(+)
Starred links: 1 amine or outer side, 2 acyl side, 3 side chain; linkers in the order of their positions; H or OH if unused. Positions of bridges follow the written chain, without caps; N, C: chain ends. Non-standard residues stand in square brackets, D forms with d. Residues, ends and D or L forms follow the SMILES beside them. *: point of attachment. Phe(4-(CH2)5CO) = O=C([C@H](Cc1ccc(CCCCCC(=O)[*:3])cc1)N[*:1])[*:2]; Ala(1H-tetrazol-5-yl) = N[C@@H](Cc1nnn[nH]1)C(=O)O; NMeF = CN[C@@H](Cc1ccccc1)C(=O)O; NMeI = CC[C@H](C)[C@H](NC)C(=O)O; NMeβAla = CN(CCC(=O)[*:2])[*:1]; NMeL = CN[C@@H](CC(C)C)C(=O)O; NMeV = CN[C@H](C(=O)O)C(C)C; NMeA = CN[C@@H](C)C(=O)O; Piperidide = C1CCN(*)CC1; Sar = CNCC(=O)O; tBu = CC(C)(C)*
Recorded measurements of microsomal CLint at 1 uM, one per entry
Answers without a unit are incomplete; give the number and then its unit.

Some molecules with recorded microsomal CLint at 1 uM:
CC(C)C[C@@H]1NC(=O)[C@H](CC(C)C)N(C)C(=O)C[C@@H](C(=O)N2CCCCC2)NC(=O)[C@H](CC(C)C)N(C)C(=O)[C@H](CC(C)C)N(C)C(=O)[C@H](Cc2nn[nH]n2)NC(=O)[C@H](CC(C)C)N(C)C(=O)[C@H](Cc2ccccc2)N(C)C(=O)[C@H](CC(C)C)NC(=O)[C@H](Cc2ccccc2)N(C)C(=O)[C@H](CC(C)C)N(C)C1=O [DP-908] ([NMeL]L[NMeL][NMeF]L[NMeF][NMeL][Ala(1H-tetrazol-5-yl)][NMeL][NMeL]D-Piperidide; lactam N-11): 3 µL/min/mg
CC[C@H](C)[C@@H]1NC(=O)[C@H](CC(C)C)N(C)C(=O)CN(C)C(=O)[C@H](Cc2ccccc2)NC(=O)[C@H](C(C)C)N(C)C(=O)[C@H](C)N(C)C(=O)[C@H]([C@@H](C)O)NC(=O)[C@H](C)N(C)C(=O)C[C@@H](C(=O)N(C)[C@@H](CC(C)C)C(=O)N[C@H](C(=O)N(C)[C@@H](CC(C)C)C(=O)N[C@@H](C)C(=O)N2CCCCC2)[C@@H](C)O)NC(=O)[C@H](C)NC1=O [DP-581] ([NMeA]T[NMeA][NMeV]F[Sar][NMeL]IAD[NMeL]T[NMeL]A-Piperidide; lactam N-10): 7 µL/min/mg
CC[C@H](C)[C@@H]1NC(=O)[C@H](CC(C)C)NC(=O)CCN(C)C(=O)C[C@@H](C(=O)N2CCCCC2)NC(=O)[C@H](CC(C)C)NC(=O)[C@H](Cc2ccccc2)NC(=O)[C@H]([C@@H](C)O)NC(=O)[C@H](CC(C)C)NC(=O)[C@H](C(C)C)NC(=O)[C@H](CC(C)C)NC(=O)CN(C)C1=O [DP-411] ([NMeβAla]LI[Sar]LVLTFLD-Piperidide; lactam N-11): 114 µL/min/mg
CC[C@H](C)[C@@H]1NC(=O)[C@H](CC(C)C)N(C)C(=O)[C@H](C(C)C)NC(=O)[C@H](CC(C)C)NC(=O)[C@H](CC(C)C)NC(=O)[C@H]([C@@H](C)O)NC(=O)[C@H](Cc2ccccc2)NC(=O)[C@H](CC(C)C)NC(=O)[C@H](C(C)C)N(C)C(=O)CCN(C)C(=O)C[C@@H](C(=O)N2CCCCC2)NC1=O [DP-412] ([NMeβAla][NMeV]LFTLLV[NMeL]ID-Piperidide; lactam N-11): 122 µL/min/mg
CC[C@H](C)[C@H]1C(=O)N[C@@H](C)C(=O)N(C)[C@@H](Cc2ccccc2)C(=O)N[C@@H]([C@@H](C)O)C(=O)N(C)[C@@H](CC(C)C)C(=O)N[C@@H](Cc2ccccc2)C(=O)N(C)[C@@H](C(C)C)C(=O)N[C@H](C(=O)N2CCCCC2)Cc2ccc(cc2)CCCCCC(=O)NCC(=O)N(C)[C@@H](CC(C)C)C(=O)N1C [DP-865] (G[NMeL][NMeI]A[NMeF]T[NMeL]F[NMeV][Phe(4-(CH2)5CO)]-Piperidide; lactam N-10): 87 µL/min/mg

microsomal CLint at 1 uM lookup needed for CC(C)C[C@H]1C(=O)N[C@H](C(=O)N2CCCCC2)CC(=O)N(C)[C@@H](C)C(=O)N(C)[C@@H](Cc2ccccc2)C(=O)N(C)[C@@H](CC(C)C)C(=O)N[C@@H]([C@@H](C)O)C(=O)N(C)CC(=O)N[C@@H](COC(C)(C)C)C(=O)N1C [DP-697] ([NMeA][NMeF][NMeL]T[Sar]S(tBu)[NMeL]D-Piperidide; lactam N-8) , thanks.
87 µL/min/mg

For CC[C@H](C)[C@H](NC(=O)[C@H](Cc1ccccc1)N(C)C(=O)[C@@H]1CC(=O)N[C@@H](C)C(=O)N[C@@H](CC(C)C)C(=O)N(C)[C@@H]([C@@H](C)CC)C(=O)N[C@@H](C(C)C)C(=O)N(C)[C@@H](Cc2ccccc2)C(=O)N[C@@H](CC(C)C)C(=O)N(C)[C@@H](Cc2ccccc2)C(=O)N1)C(=O)N1CCCCC1 [DP-573] (AL[NMeI]V[NMeF]L[NMeF]D[NMeF]I-Piperidide; lactam N-8) , what is its reported microsomal CLint at 1 uM?
72 µL/min/mg

Return reported microsomal CLint at 1 uM; argument: CC[C@H](C)[C@@H]1NC(=O)[C@H](C)NC(=O)C[C@@H](C(=O)N(C)[C@@H](Cc2ccccc2)C(=O)N(C)[C@@H](Cc2ccccc2)C(=O)N[C@@H](C)C(=O)N2CCCCC2)NC(=O)[C@H](C)NC(=O)[C@H](C)N(C)C(=O)[C@H](CC(C)C)N(C)C(=O)CN(C)C(=O)[C@H]([C@@H](C)O)NC(=O)[C@H](C(C)C)N(C)C(=O)[C@H](Cc2ccccc2)N(C)C1=O [DP-389] (AI[NMeF][NMeV]T[Sar][NMeL][NMeA]AD[NMeF][NMeF]A-Piperidide; lactam N-10)
14 µL/min/mg

Which measured microsomal CLint at 1 uM value corresponds to C=C1CCC(=O)N[C@@H](CC(C)C)C(=O)N[C@@H](C(C)C)C(=O)N(C)[C@@H](CC(C)C)C(=O)N[C@@H](Cc2ccccc2)C(=O)N(C)[C@@H](Cc2ccccc2)C(=O)N[C@@H]([C@@H](C)CC)C(=O)N(C)[C@@H](C)C(=O)N[C@@H](CC(C)C)C(=O)N[C@@H]([C@@H](C)O)C(=O)N[C@H](C(=O)N2CCCCC2)Cc2cccc1c2 ?
47 µL/min/mg

Consider the molecule shown here: CC[C@H](C)[C@H]1C(=O)N(C)[C@@H](CC(C)C)C(=O)N[C@@H](C)C(=O)N(C)[C@@H](CC(C)C)C(=O)N(C)[C@@H](Cc2ccccc2)C(=O)N[C@@H]([C@@H](C)O)C(=O)N(C)[C@@H](Cc2ccccc2)C(=O)N(C)[C@@H](CC(C)C)C(=O)N(C)[C@@H](C)C(=O)N[C@H](C(=O)N2CCCCC2)CC(=O)N[C@H](C(C)C)C(=O)N1C [DP-235] ([dV][NMeI][NMeL]A[NMeL][NMeF]T[NMeF][NMeL][NMeA]D-Piperidide; lactam N-11) What is its recorded microsomal CLint at 1 uM?
58 µL/min/mg
